Where do the numbers come from? From patent US20250074891A1.

Below, each entry is listed with its recorded DC50.
measured.target: endogenous MLKL in U937 (Homo sapiens (Human))
Sequence (Q8NB16 whole entry): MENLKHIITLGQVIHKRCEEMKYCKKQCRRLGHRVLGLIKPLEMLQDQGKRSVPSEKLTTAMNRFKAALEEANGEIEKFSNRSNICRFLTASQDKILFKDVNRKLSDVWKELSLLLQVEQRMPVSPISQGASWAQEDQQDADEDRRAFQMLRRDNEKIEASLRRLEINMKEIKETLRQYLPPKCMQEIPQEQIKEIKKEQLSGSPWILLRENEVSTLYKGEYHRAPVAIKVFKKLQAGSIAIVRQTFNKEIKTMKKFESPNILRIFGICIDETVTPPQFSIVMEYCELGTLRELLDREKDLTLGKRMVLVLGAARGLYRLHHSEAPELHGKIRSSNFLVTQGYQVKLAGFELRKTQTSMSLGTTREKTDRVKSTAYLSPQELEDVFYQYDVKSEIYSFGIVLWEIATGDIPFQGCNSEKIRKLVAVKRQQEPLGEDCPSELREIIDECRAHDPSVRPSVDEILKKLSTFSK
assay.procedure: Degradation assay: degradation of endogenous MLKL in human cells (Western blot)
test.context: 24 h incubation, read-out: Degradation of endogenous MLKL in U937 (DC50 cell-based assay in μM)

Would you please look over these solved cases?
CCS(=O)(=O)Nc1ccc(-c2n[nH]c(Nc3ccnc(OCCOCCOCCOCCOCCNC(=O)COc4cccc5c4C(=O)N(C4CCC(=O)NC4=O)C5=O)c3)c2C(N)=O)cc1 (centres unmarked) | 1 to 10 µM
CCS(=O)(=O)Nc1ccc(-c2n[nH]c(Nc3ccnc(OCCOCCOCCOCCOCCOCCNC(=O)COc4cccc5c4C(=O)N(C4CCC(=O)NC4=O)C5=O)c3)c2C(N)=O)cc1 (centres unmarked) | 1 to 10 µM
Cc1ncsc1-c1ccc(CNC(=O)[C@@H]2C[C@@H](O)CN2C(=O)[C@@H](NC(=O)CN2CCC(Oc3ccc(Nc4[nH]nc(-c5ccc(NS(=O)(=O)C(F)F)c(O[C@@H](C)c6ccc(F)cc6)c5)c4C(N)=O)nc3)CC2)C(C)(C)C)cc1 | < 1 µM
Cc1ncsc1-c1ccc(CNC(=O)[C@@H]2C[C@@H](O)CN2C(=O)[C@@H](NC(=O)CCCCOc2ccc(Nc3[nH]nc(-c4ccc(NS(=O)(=O)C(F)F)c(OCc5ccc(F)cc5)c4)c3C(N)=O)nc2)C(C)(C)C)cc1 | < 1 µM

# ---- query compound ----
input: For `Cc1ncsc1-c1ccc(CNC(=O)[C@@H]2C[C@@H](O)CN2C(=O)[C@@H](NC(=O)CCCCOc2cc(Nc3[nH]nc(-c4ccc(NS(=O)(=O)CC(F)(F)F)cc4)c3C(N)=O)ccn2)C(C)(C)C)cc1` , what is its reported DC50?
output: 1 to 10 µM

###

measured.target: UniProt Q8NB16
assay.procedure: KINOMEscan binding assay, MLKL (full length)
test.context: Table 36
measurement.name: Kd

Example entries begin here.
CCS(=O)(=O)Nc1ccc(-c2n[nH]c(Nc3ccc(OCCCCC(=O)N[C@H](C(=O)N4C[C@H](O)C[C@H]4C(=O)NCc4ccc(-c5scnc5C)cc4)C(C)(C)C)cn3)c2C(N)=O)cc1OCc1ccc(F)cc1 | < 10 nM
Cc1ncsc1-c1ccc(CNC(=O)[C@@H]2C[C@@H](O)CN2C(=O)[C@@H](NC(=O)CCCCCCn2ccc(Nc3[nH]nc(-c4ccc(NS(=O)(=O)C(F)F)c(O[C@@H](C)c5ccc(F)cc5)c4)c3C(N)=O)n2)C(C)(C)C)cc1 | < 10 nM

Continue with the next compound.
input: Requested field: Kd. Item: `Cc1ncsc1-c1ccc(CNC(=O)[C@@H]2C[C@@H](O)CN2C(=O)[C@@H](NC(=O)CCCCOC(=O)c2ccc(Nc3[nH]nc(-c4ccc(NS(=O)(=O)C(F)F)cc4)c3C(N)=O)nc2)C(C)(C)C)cc1`
output: < 10 nM

###

measured.target: MLKL (full length) (Homo sapiens (Human))
Sequence (Q8NB16 whole entry): as the sequence (Q8NB16 whole entry) above
assay.procedure: KINOMEscan binding assay, MLKL (full length)
test.context: Table 36
pKd: −log10 of the molar value.
measurement.name: pKd

Cc1ncsc1-c1ccc(CNC(=O)[C@@H]2C[C@@H](O)CN2C(=O)[C@@H](NC(=O)COCCn2ccc(Nc3[nH]nc(-c4ccc(NS(=O)(=O)C(F)F)c(O[C@@H](C)c5ccc(F)cc5)c4)c3C(N)=O)n2)C(C)(C)C)cc1 [Compound 1036] | > 8.00
CCS(=O)(=O)Nc1ccc(-c2n[nH]c(Nc3ccnc(OCCOCCOCCOCCOCCOCCOCC(=O)N[C@H](C(=O)N4C[C@H](O)C[C@H]4C(=O)NCc4ccc(-c5scnc5C)cc4)C(C)(C)C)c3)c2C(N)=O)cc1 [Compound 1009] | > 8.00
CCS(=O)(=O)Nc1ccc(-c2n[nH]c(Nc3ccnc(OCCOCCOCCOCCOCCOCC(=O)N[C@H](C(=O)N4C[C@H](O)C[C@H]4C(=O)NCc4ccc(-c5scnc5C)cc4)C(C)(C)C)c3)c2C(N)=O)cc1 [Compound 1008] | > 8.00
CCS(=O)(=O)Nc1ccc(-c2n[nH]c(Nc3ccc(C(=O)NCC(=O)N[C@@H](C(=O)N4C[C@@H](O)C[C@@H]4C(=O)NCc4ccc(-c5scnc5C)cc4)C(C)(C)C)cn3)c2C(N)=O)cc1O[C@H](C)c1ccc(F)cc1 (stereo in doubt) [Compound 1026] | > 8.00
CCS(=O)(=O)Nc1ccc(-c2n[nH]c(Nc3ccnc(OCCOCCOCCOCCOCCOCCNC(=O)COc4cccc5c4C(=O)N(C4CCC(=O)NC4=O)C5=O)c3)c2C(N)=O)cc1 (stereo not drawn) [Compound 1005] | > 8.00

// next item, pKd requested
input: For the record Cc1ncsc1-c1ccc(CNC(=O)[C@@H]2C[C@@H](O)CN2C(=O)[C@@H](NC(=O)COCCOc2cc(Nc3[nH]nc(-c4ccc(NS(=O)(=O)CC(F)(F)F)cc4)c3C(N)=O)ccn2)C(C)(C)C)cc1 [Compound 1011] , what value of pKd is listed for MLKL (full length) (Homo sapiens (Human))?
output: > 8.00
